Just for reference, the supplement of paper PMC10126150 is where these values come from.

- Test system: ATP;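 note: ATP exposure 15 min at 22 °C before imaging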
- method_description: switch fluorescence ratio, 500 uM ATP over buffer (Cy3 cluster intensity, sum of 5 cycles each) (fold (ratio)); higher = stronger signal-on switching upon ATP binding; sequences stand for … in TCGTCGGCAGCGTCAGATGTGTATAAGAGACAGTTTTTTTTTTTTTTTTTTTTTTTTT…TC
- condition_summary: aptamer strand: ATP DNA aptamer (quencher-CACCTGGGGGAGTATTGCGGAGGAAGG + anchor), 100 nM annealed; ATP concentration: 500 uM
Output y for switch fluorescence ratio not less than 1; output n otherwise.

Reference set (5 entries):
- seq_text: "TAGGGGCTTT"
  target_entity: "ATP"
  group: "y"
- seq_text: "ATTCATTGC"
  target_entity: "ATP"
  group: "y"
- seq_text: "TAGTAGGGGG"
  target_entity: "ATP"
  group: "n"
- seq_text: "TATTTTATTG"
  target_entity: "ATP"
  group: "y"
- seq_text: "ATTACTGTGC"
  target_entity: "ATP"
  group: "n"

Next sequence, please.
# bool: switch fluorescence ratio of TGGACCGGTT >= 1
y

* * *

Measured switch fluorescence ratio by item
- Tested on: ATP;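 note: ATP exposure 15 min at 22 °C before imaging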
- method_description: switch fluorescence ratio, 500 uM ATP over buffer (Cy3 cluster intensity, sum of 5 cycles each) (fold (ratio)); higher = stronger signal-on switching upon ATP binding; sequences stand for … in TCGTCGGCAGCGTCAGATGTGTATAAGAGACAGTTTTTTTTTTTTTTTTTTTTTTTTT…TC
- condition_summary: aptamer strand: ATP DNA aptamer (quencher-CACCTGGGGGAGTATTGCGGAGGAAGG + anchor), 100 nM annealed; ATP concentration: 500 uM

- seq_text: "TTACGATGGG"
  endpoint: "switch fluorescence ratio"
  result: 0.971

Which measured switch fluorescence ratio belongs to GAAGGGGAAT , tested on ATP?;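 note: ATP exposure 15 min at 22 °C before imaging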
1

What would you report for GAGTTCTTCA ?
0.973

What would you report for GGGTAAGGCA ?
0.986

What would you report for TTTCCATTCT ?
1

What would you report for TCGAGGGGGG ?
1.05

* * *

Measured switch fluorescence ratio by item
- Test system: ATP;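 note: ATP exposure 15 min at 22 °C before imaging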
- method_description: switch fluorescence ratio, 500 uM ATP over buffer (Cy3 cluster intensity, sum of 5 cycles each) (fold (ratio)); higher = stronger signal-on switching upon ATP binding; sequences stand for … in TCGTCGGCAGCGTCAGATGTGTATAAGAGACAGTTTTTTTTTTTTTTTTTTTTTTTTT…TC
- condition_summary: aptamer strand: ATP DNA aptamer (quencher-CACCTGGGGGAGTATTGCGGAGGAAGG + anchor), 100 nM annealed; ATP concentration: 500 uM
Form: value (number only, do not type unit).

// solved cases for switch fluorescence ratio follow
- seq_text: "TATCGTTTAA"
  switch fluorescence ratio: 0.987
- seq_text: "GTTTTCGGGC"
  switch fluorescence ratio: 0.987
- seq_text: "GCGAAAAGAA"
  switch fluorescence ratio: 1.05

Below: the item to evaluate.
Report switch fluorescence ratio for GCACATCTGT please.
0.99

* * *

- Test system: ATP;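 note: ATP exposure 15 min at 22 °C before imaging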
- method_description: switch fluorescence ratio, 500 uM ATP over buffer (Cy3 cluster intensity, sum of 5 cycles each) (fold (ratio)); higher = stronger signal-on switching upon ATP binding; sequences stand for … in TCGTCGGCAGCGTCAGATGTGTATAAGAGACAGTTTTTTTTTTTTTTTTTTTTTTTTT…TC
- condition_summary: aptamer strand: ATP DNA aptamer (quencher-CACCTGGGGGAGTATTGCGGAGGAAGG + anchor), 100 nM annealed; ATP concentration: 500 uM
endpoint: switch fluorescence ratio
Form: value (number only, do not type unit).

// solved cases for switch fluorescence ratio follow
- seq_text: "AAGGAAGAAA"
  switch fluorescence ratio: 0.974
- seq_text: "CGTCGCGGGC"
  switch fluorescence ratio: 1.04
- seq_text: "CGGGCTGTTG"
  switch fluorescence ratio: 0.963

Report switch fluorescence ratio for GTTTAATGGT please.
0.985

What would you report for ATTCTACGGC ?
1.06

What would you report for ATTCAGGTTG ?
1.02

What would you report for GGTGTTCACT ?
0.995

What would you report for TTAAATTGGG ?
1.01

What would you report for CATTGTTATC ?
1.08

What would you report for TTTTGGTAAT ?
1.01

What would you report for TGGTTCGTTA ?
1

What would you report for CCAGAAAGGA ?
0.97

What would you report for AGGAGGTGCT ?
0.965

What would you report for TGGGATAGAG ?
1

What would you report for AGGGTGGCGC ?
1.02

What would you report for TTTAGCAGAG ?
1.16

What would you report for TAAAAGATAG ?
1

What would you report for GCGTTCCTTA ?
0.971

What would you report for TGAGAGGTCT ?
1.02

What would you report for GTCTGGGGGA ?
1.03

What would you report for GATGTTTTAC ?
0.998

* * *

- Tested on: ATP;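 note: ATP exposure 15 min at 22 °C before imaging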
- method_description: switch fluorescence ratio, 500 uM ATP over buffer (Cy3 cluster intensity, sum of 5 cycles each) (fold (ratio)); higher = stronger signal-on switching upon ATP binding; sequences stand for … in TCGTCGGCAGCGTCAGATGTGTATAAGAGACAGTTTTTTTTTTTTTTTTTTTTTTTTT…TC
- condition_summary: aptamer strand: ATP DNA aptamer (quencher-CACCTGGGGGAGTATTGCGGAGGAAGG + anchor), 100 nM annealed; ATP concentration: 500 uM
Measured switch fluorescence ratio by item
Form: value (number only, do not type unit).

// solved cases for switch fluorescence ratio follow
- seq_text: "AAGGTAGGGC"
  switch fluorescence ratio: 1.01
- seq_text: "TTTCTTGCTG"
  switch fluorescence ratio: 1.07
- seq_text: "ATTTGGGCTT"
  switch fluorescence ratio: 1.05
- seq_text: "GGGGAAAGGA"
  switch fluorescence ratio: 0.99
- seq_text: "GTTTGCAGCA"
  switch fluorescence ratio: 1.03
- seq_text: "TTGAGGGGAT"
  switch fluorescence ratio: 1
- seq_text: "AAAGTGGTCG"
  switch fluorescence ratio: 1.1
- seq_text: "CGACGTGGGA"
  switch fluorescence ratio: 1.04

Report switch fluorescence ratio for TCGCCGCTAT please.
2.61

What would you report for CGTTCCTCGG ?
1.77

* * *

- System: ATP;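 note: ATP exposure 15 min at 22 °C before imaging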
- method_description: switch fluorescence ratio, 500 uM ATP over buffer (Cy3 cluster intensity, sum of 5 cycles each) (fold (ratio)); higher = stronger signal-on switching upon ATP binding; sequences stand for … in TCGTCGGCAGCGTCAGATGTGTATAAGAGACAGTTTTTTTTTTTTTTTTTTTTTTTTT…TC
- condition_summary: aptamer strand: ATP DNA aptamer (quencher-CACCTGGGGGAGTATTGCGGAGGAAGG + anchor), 100 nM annealed; ATP concentration: 500 uM
Measured switch fluorescence ratio by item
Form: value (number only, do not type unit).

// solved cases for switch fluorescence ratio follow
- seq_text: "GGGATGACAG"
  switch fluorescence ratio: 1.02
- seq_text: "GGTGAAATGT"
  switch fluorescence ratio: 0.956
- seq_text: "TGCCGGCTCG"
  switch fluorescence ratio: 1.01
- seq_text: "ACCGGCACGG"
  switch fluorescence ratio: 0.968
- seq_text: "ACGGTGACGG"
  switch fluorescence ratio: 1.02
- seq_text: "CAAGGGGTTT"
  switch fluorescence ratio: 0.99
- seq_text: "ACTTGGGCTT"
  switch fluorescence ratio: 1.03
- seq_text: "AACCATCGGG"
  switch fluorescence ratio: 0.976
- seq_text: "TCAGGACTCG"
  switch fluorescence ratio: 0.982
- seq_text: "ATTACTGAGT"
  switch fluorescence ratio: 1.03

Report switch fluorescence ratio for ATTGAGGGTC please.
0.986

What would you report for TGGTATATTA ?
0.983

What would you report for AAAAACTCTG ?
1.01

What would you report for GCATTTATGG ?
0.949

What would you report for TTTCAGTCGC ?
0.999

* * *

- Test system: ATP;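 note: ATP exposure 15 min at 22 °C before imaging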
- method_description: switch fluorescence ratio, 500 uM ATP over buffer (Cy3 cluster intensity, sum of 5 cycles each) (fold (ratio)); higher = stronger signal-on switching upon ATP binding; sequences stand for … in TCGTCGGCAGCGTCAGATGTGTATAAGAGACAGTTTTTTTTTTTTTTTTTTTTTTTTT…TC
- condition_summary: aptamer strand: ATP DNA aptamer (quencher-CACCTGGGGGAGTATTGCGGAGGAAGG + anchor), 100 nM annealed; ATP concentration: 500 uM
Measured switch fluorescence ratio by item
Form: value (number only, do not type unit).

// solved cases for switch fluorescence ratio follow
- seq_text: "CAGGTATATG"
  switch fluorescence ratio: 1.01
- seq_text: "GTGGGGCGTT"
  switch fluorescence ratio: 1
- seq_text: "GTTGTTGCTC"
  switch fluorescence ratio: 0.987
- seq_text: "CCTGCGTCTG"
  switch fluorescence ratio: 1.9
- seq_text: "TACTCATTGT"
  switch fluorescence ratio: 1.03

Report switch fluorescence ratio for ATAGTGATAC please.
3.28

What would you report for TGCAATTTCG ?
1.07

What would you report for TGCTGGCATG ?
0.967

What would you report for TTTCAGGGGG ?
1.05

What would you report for GTTGCTGGTG ?
1.03

What would you report for AAGTTGGGGC ?
0.989

What would you report for AGTGACGGTA ?
1.04
